test: In vivo antitumor efficacy in cynomolgus monkeys 0-48 hr after peroral dose of 10 mg/kg expressed as Area under the curve; format: ADME, organism-based, Macaca fascicularis; design: time < 48 hr, dose 10 mg/kg, route oral; settings: cynomolgus monkey, po
Quantity Name: AUC at 48 h
Write down the value, and be sure its unit follows.

[ask] Bench note: what AUC at 48 h did O=C(Cc1cc[n+]([O-])cc1)N1CCN(C2c3ccc(Cl)cc3CCc3cc(Br)cnc32)CC1 (stereo unspecified) show?
[reply] 35600 ng·h/mL

---

assay: In vivo antitumor efficacy in cynomolgus monkeys by injecting a dose of 25 mg/kg, as HCl salt in saline solution, iv and the serum half-life was determined; type: ADME, organism-based, Macaca fascicularis; design: dose 25 mg/kg, route intravenous; settings: cynomolgus monkey, serum
Quantity Name: half-life (h)
Output spec: scalar in h, unitless text.

[ask] Looking for the measured half-life of O=C(Cc1cccnc1)N1CCN(C2c3ccc(Cl)cc3CCc3cccnc32)CC1 (stereo unspecified) , can you help?
[reply] 1.5

---

assay: In vivo antitumor efficacy in nude mice 0-24 hr after peroral dose of 25 mg/kg expressed as Area under the curve; type: ADME, organism-based; parameters: time < 24 hr, dose 25 mg/kg, route oral; conditions: nude, mouse, po
Quantity Name: AUC at 24 h (ng·h/mL)
The figure you give is taken to be in ng·h/mL; do not add the unit.

Previously resolved entries follow.
>>> test_result("O=C(Cc1cc[n+]([O-])cc1)N1CCN([C@@H]2c3ccc(Cl)cc3CCc3cc(Br)cnc32)CC1")
31900
>>> test_result("O=C(Cc1cc[n+]([O-])cc1)N1CCN([C@H]2c3ccc(Cl)cc3CCc3cccnc32)CC1")
15500
>>> test_result("O=C(Cc1ccc[n+]([O-])c1)N1CCN(C2c3ccc(Cl)cc3CCc3cc(Br)cnc32)CC1 (stereo not given)")
34800
>>> test_result("O=C(Cc1ccncc1)N1CCN(C2c3ccc(Cl)cc3CCc3cc(Br)cnc32)CC1 (stereo not given)")
1100
>>> test_result("CCCC[C@H]1CN(C2c3ccc(Cl)cc3CCc3cc(Br)cnc32)CCN1C(=O)Cc1cc[n+]([O-])cc1 (stereo not given in full)")
43200

[ask] Reported AUC at 24 h, compound COCC[C@H]1CN(C2c3ccc(Cl)cc3CCc3cc(Br)cnc32)CCN1C(=O)Cc1cc[n+]([O-])cc1 (stereo not given in full) : ____
[reply] 19900

[ask] Param item = CC(C)(C(=O)N1CCN(C2c3ccc(Cl)cc3CCc3cc(Br)cnc32)CC1)c1ccc[n+]([O-])c1 (stereo not given) ; retrieve measured AUC at 24 h.
[reply] 11700

[ask] Need AUC at 24 h, item O=C(Cc1cc[n+]([O-])cc1)N1CCN(C2c3ccc(Cl)cc3CCc3cc(Br)cnc32)CC1 (stereo not given)
[reply] 19600

[ask] Endpoint output: AUC at 24 h of O=C(Cc1ccc[n+]([O-])c1)N1CCN(C2c3ccc(Cl)cc3CCc3cccnc32)CC1 (stereo not given) . Value?
[reply] 11000

[ask] For `O=C(Cc1cc[n+]([O-])cc1)N1CCN([C@H]2c3ccc(Cl)cc3CCc3cc(Br)cnc32)CC1` , what is its reported AUC at 24 h?
[reply] 26100
